These data points were gathered from patent US20060223846A1.

assay-system: α4β1 (Homo sapiens, UniProt P05556+P13612)
Sequence (P13612 34-1032): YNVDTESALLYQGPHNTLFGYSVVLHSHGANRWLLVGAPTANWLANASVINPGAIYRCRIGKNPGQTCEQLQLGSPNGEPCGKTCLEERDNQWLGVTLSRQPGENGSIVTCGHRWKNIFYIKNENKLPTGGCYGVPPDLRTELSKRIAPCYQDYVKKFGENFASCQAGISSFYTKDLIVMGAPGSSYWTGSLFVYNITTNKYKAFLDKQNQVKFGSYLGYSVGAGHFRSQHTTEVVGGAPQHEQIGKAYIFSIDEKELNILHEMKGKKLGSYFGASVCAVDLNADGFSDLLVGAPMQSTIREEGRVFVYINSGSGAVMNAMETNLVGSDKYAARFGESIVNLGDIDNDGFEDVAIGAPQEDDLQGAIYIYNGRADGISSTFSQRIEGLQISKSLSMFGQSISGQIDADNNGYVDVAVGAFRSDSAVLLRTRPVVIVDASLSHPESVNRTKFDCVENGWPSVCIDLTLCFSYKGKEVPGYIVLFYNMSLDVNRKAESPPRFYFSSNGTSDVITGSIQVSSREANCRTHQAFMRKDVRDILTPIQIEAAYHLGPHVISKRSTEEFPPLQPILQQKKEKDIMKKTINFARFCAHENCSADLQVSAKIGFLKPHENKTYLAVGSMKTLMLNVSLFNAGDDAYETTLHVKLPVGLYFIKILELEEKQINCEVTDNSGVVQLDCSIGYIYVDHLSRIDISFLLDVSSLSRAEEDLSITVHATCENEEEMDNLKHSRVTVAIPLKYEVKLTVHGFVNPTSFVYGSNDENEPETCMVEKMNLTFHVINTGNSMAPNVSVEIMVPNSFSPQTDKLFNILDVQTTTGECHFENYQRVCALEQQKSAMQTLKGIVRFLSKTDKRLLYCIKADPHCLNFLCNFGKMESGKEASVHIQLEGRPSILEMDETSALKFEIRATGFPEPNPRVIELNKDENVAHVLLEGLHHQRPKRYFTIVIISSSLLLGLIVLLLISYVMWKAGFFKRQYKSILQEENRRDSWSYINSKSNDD
Sequence (P05556 21-798): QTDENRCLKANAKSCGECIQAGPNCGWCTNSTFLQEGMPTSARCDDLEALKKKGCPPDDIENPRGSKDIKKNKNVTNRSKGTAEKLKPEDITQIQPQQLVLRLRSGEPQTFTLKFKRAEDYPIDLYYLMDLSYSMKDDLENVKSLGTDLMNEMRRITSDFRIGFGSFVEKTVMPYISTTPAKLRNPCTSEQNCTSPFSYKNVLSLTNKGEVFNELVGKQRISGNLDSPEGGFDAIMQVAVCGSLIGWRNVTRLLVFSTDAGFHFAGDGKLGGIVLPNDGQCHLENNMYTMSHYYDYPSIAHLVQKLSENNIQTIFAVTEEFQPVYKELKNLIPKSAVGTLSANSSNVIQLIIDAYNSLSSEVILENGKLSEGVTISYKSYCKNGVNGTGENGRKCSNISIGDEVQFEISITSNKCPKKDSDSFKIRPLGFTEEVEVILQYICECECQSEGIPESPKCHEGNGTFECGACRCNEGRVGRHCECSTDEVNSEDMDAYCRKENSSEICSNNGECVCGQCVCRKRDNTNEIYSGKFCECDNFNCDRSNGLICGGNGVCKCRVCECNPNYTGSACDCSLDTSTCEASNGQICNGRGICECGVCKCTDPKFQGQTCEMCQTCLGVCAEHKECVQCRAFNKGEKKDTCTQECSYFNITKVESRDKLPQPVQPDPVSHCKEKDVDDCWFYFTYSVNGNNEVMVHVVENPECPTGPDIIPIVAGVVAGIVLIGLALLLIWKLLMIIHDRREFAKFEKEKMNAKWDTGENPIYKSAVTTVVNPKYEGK
test: Ramos Cell Adhesion Assay (α4β1 Mediated Adhesion/VCAM-1)
Assay type: cell-based
Set-up: Ramos cells, (50 μL at 2×10^6/mL) labeled with 5 μM Calcein AM; endogenous in cells; host or cells: Ramos cells
condition: Ramos cells on recombinant hVCAM-1; read-out: α4β1 IC50
pIC50: −log10 of the molar value.
Assign t whenever pIC50 does not fall below 8; assign f whenever it does.

[
  {
    "compound": "O=C(Nc1ccc(CC(NC(=O)C2C3CCC(CC3)N2C(=O)c2c(Cl)cccc2Cl)C(=O)O)cc1)c1c(Cl)cncc1Cl (stereo not shown)",
    "label-class": "f"
  },
  {
    "compound": "O=C(Nc1ccc(CC(NC(=O)C2C3CCC(CC3)N2C(=O)C=Cc2ccc3c(c2)OCO3)C(=O)O)cc1)c1c(Cl)cncc1Cl (stereo not shown)",
    "label-class": "f"
  },
  {
    "compound": "O=C(Nc1ccc(CC(NC(=O)C2C3CCC(CC3)N2C(=O)c2ccccc2C(F)(F)F)C(=O)O)cc1)c1c(Cl)cncc1Cl (stereo not shown)",
    "label-class": "f"
  },
  {
    "compound": "COc1cccc(CCC(=O)N2C3CCC(CC3)C2C(=O)NC(Cc2ccc(NC(=O)c3c(Cl)cncc3Cl)cc2)C(=O)O)c1 (stereo not shown)",
    "label-class": "t"
  },
  {
    "compound": "O=C(Nc1ccc(CC(NC(=O)C2C3CCC(CC3)N2C(=O)CCc2cccnc2)C(=O)O)cc1)c1c(Cl)cncc1Cl (stereo not shown)",
    "label-class": "t"
  },
  {
    "compound": "O=C(Nc1ccc(CC(NC(=O)C2C3CCC(CC3)N2C(=O)CCc2ccccc2F)C(=O)O)cc1)c1c(Cl)cncc1Cl (stereo not shown)",
    "label-class": "t"
  },
  {
    "compound": "O=C(Nc1ccc(CC(NC(=O)C2C3CCC(CC3)N2Cc2ccccc2)C(=O)O)cc1)c1c(Cl)cncc1Cl (stereo not shown)",
    "label-class": "f"
  }
]

----------
Listing: IC50 of selected compounds
assay-system: α4β1 (Homo sapiens, UniProt P05556+P13612)
test: Ramos Cell Adhesion Assay (α4β1 Mediated Adhesion/VCAM-1)
Format: cell-based
Design: Ramos cells, (50 μL at 2×10^6/mL) labeled with 5 μM Calcein AM; endogenous in cells; host or cells: Ramos cells
condition: Ramos cells on recombinant hVCAM-1; read-out: α4β1 IC50
Description: Ramos Cell Adhesion Assay α4β1 Mediated Adhesion/VCAM-1) Immulon […] plates (Dynex) were coated with 100 μL recombinant hVCAM-1 at 4.0 μg/mL in 0.05 M NaCO3 buffer pH 9.0 overnight at 4° C. (R&D Systems). Plates were washed 3 times in PBS with 1% BSA and blocked for 1 h @ room temperature in this buffer. PBS was removed and compounds to be tested (50 μL) were added at 2× concentration. […] The plate was read at 485 nm excitation and 530 nm emission.

[
  {
    "compound": "O=C(Nc1ccc(CC(NC(=O)C2C3CCC(CC3)N2C(=O)Cc2c(Cl)cccc2Cl)C(=O)O)cc1)c1c(Cl)cncc1Cl (stereo not shown) [Cpd 6]",
    "uom": "µM",
    "IC50": 0.234
  },
  {
    "compound": "O=C(Nc1ccc(CC(NC(=O)C2C3CCC(CC3)N2C(=O)CC2CCOCC2)C(=O)O)cc1)c1c(Cl)cncc1Cl (stereo not shown) [Cpd 41]",
    "uom": "µM",
    "IC50": 0.011
  },
  {
    "compound": "O=C(Nc1ccc(CC(NC(=O)C2C3CCC(CC3)N2C(=O)Cc2csc3ccccc23)C(=O)O)cc1)c1c(Cl)cncc1Cl (stereo not shown) [Cpd 36]",
    "uom": "µM",
    "IC50": 0.055
  },
  {
    "compound": "O=C(Nc1ccc(CC(NC(=O)C2C3CCC(CC3)N2Cc2ccc(Cl)s2)C(=O)O)cc1)c1c(Cl)cncc1Cl (stereo not shown) [Cpd 19]",
    "uom": "µM",
    "IC50": 2.56
  },
  {
    "compound": "O=C(Nc1ccc(CC(NC(=O)C2C3CCC(CC3)N2C(=O)Cc2ccccn2)C(=O)O)cc1)c1c(Cl)cncc1Cl (stereo not shown) [Cpd 4]",
    "uom": "µM",
    "IC50": 0.025
  },
  {
    "compound": "COc1cc(CC(=O)N2C3CCC(CC3)C2C(=O)NC(Cc2ccc(NC(=O)c3c(Cl)cncc3Cl)cc2)C(=O)O)cc(OC)c1 (stereo not shown) [Cpd 31]",
    "uom": "µM",
    "IC50": 0.008
  },
  {
    "compound": "O=C(Nc1ccc(CC(NC(=O)C2C3CCC(CC3)N2C(=O)Cc2csc3ccccc23)C(=O)O)cc1)c1c(Cl)cncc1Cl (stereo not shown) [Cpd 62]",
    "uom": "µM",
    "IC50": 0.292
  }
]
